- SYSTEM_TESTED: T1, his-tagged human TIGIT (Acro Biosystems #TIT-H52H3) (human, UniProt Q495A1 22-141)
- T1 construct: Bought protein; also called His-tagged-TIGIT (human); not shown: his tag
- T1 sequence (looked up): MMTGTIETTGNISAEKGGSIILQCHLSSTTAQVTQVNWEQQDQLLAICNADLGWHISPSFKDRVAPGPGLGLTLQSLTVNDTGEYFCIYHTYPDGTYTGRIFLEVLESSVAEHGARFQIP
- PROTOCOL_NOTES: ELISA, coated His-TIGIT, 1 ug/ml
Field: Elisa OD450. Provide a value for each of the binders that follow.
Numbers only, in OD450.

For orientation, consider the following solved cases.
binder="43586p1.2.G4 (scFv, V domains shown) VH: EVQLLESGGGLVQPGGSLRLSCAASGFTFDDYVMSWVRQAPGKGLEWVSLINWNGDKTYYADSVKGRFTISRDNSKNTLYLQMNSLRAEDTAVYYCARHWIVFQYGLDVWGQGTTVTVSS VL: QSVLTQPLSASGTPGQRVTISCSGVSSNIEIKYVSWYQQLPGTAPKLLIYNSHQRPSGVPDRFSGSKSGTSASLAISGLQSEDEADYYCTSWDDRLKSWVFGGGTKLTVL" value=2.02
binder="43586p2.D11 (scFv, V domains shown) VH: EVQLLESGGGLVQPGGSLRLSCAASGFTFDDYVMSWVRQAPGKGLEWVSLINWSGGTTYYADSVKGRFTISRDNSKNTLYLQMNSLRAEDTAVYYCAKHWIVYQYGMDVWGQGTTVTVSS VL: QSVLTQPSSASGTPGQRVAISCSGTISNIETKYVSWYKYVSWYQQLPGTAPKLLIYNNVQRPSGVPDRFSGSQSGTSASLAISGLQSEDEAHYYCASWEGGLNSWVFGGGTKLTVL" value=2.01

Lab note: next binder to report on.
Req: Recorded Elisa OD450 for 43586p2.B02 (scFv, V domains shown) VH: EVQLLESGGGLVQPGGSLRLSCAASGFTFTSYAMSWVSQAPGKGLEWVAGISYDGSSKYYADSVKGRLTISRDNSKNTLYLQMNSLRAEDTAIYYCAKHLTGGTTDYYYYAMDVWGQGTTVTVSS VL: QSVLTQPPSASGTPGQRVTISCSGSRSNIGTNRYVHWYQQLPGTAPKLLIYGNHQRPSGVPDRFSGSKSGTSASLAISGLQSEDEADYYCAAWDDSLSAWVFGGGTKLTVL , please?
Resp: 1.94
